// provenance: paper PMC11252457

Task for the reader: assign each of the following compounds its reported EC50.
test system: HIV-1 double mutant strain F227L/V106A; test: microbe, parasite or virus in culture; assay type: cell-based; conditions: Human immunodeficiency virus 1, MT4, read-out: EC50 F227L/V106A
The answer consists of two parts: a number and, after it, its unit.

Example cases with answers are listed next.
>  <compound>
CCOP(=O)(OCC)c1ccc(CN2CCC(Nc3nc(Oc4c(C)cc(C#N)cc4C)c4sccc4n3)CC2)cc1

>  <EC50>
14.3 nM

$$$$
>  <compound>
Cc1cc(/C=C/C#N)cc(C)c1Oc1nc(NC2CCN(Cc3ccc(P(=O)(OCC(C)C)OCC(C)C)cc3)CC2)nc2ccsc12 [15h]

>  <EC50>
886 nM

$$$$

Need EC50 for each of these compounds.
1. Cc1cc(/C=C/C#N)cc(C)c1Oc1nc(NC2CCN(Cc3ccc(P(C)(C)=O)cc3)CC2)nc2ccsc12 [15a]
2. Cc1cc(C#N)cc(C)c1Oc1nc(Nc2ccc(C#N)cc2)nc(N)c1Br [ETR, etravirine, reference compound]

1: 3.76 nM; 2: 18.2 nM

====

test system: WT HIV-1 (IIIB); assay: microbe, parasite or virus in culture; assay type: cell-based; conditions: Human immunodeficiency virus 1, IIIB, MT4, read-out: EC50 IIIB
Task for the reader: assign each of the following compounds its reported pEC50.
Answers are plain numbers, as −log10 of the molar value.

>  <compound>
Cc1cc(/C=C/C#N)cc(C)c1Oc1nc(NC2CCN(Cc3ccc(P(C)(C)=O)cc3)CC2)nc2ccsc12 [15a]

>  <pEC50>
8.76

$$$$
>  <compound>
Cc1cc(C#N)cc(C)c1Oc1nc(NC2CCN(Cc3ccc(P(=O)(OCC(C)C)OCC(C)C)cc3)CC2)nc2ccsc12

>  <pEC50>
7.04

$$$$
>  <compound>
Cc1cc(C#N)cc(C)c1Oc1nc(Nc2ccc(C#N)cc2)nc(N)c1Br [ETR, etravirine, reference compound]

>  <pEC50>
8.55

$$$$

Need pEC50 for each of these compounds.
1. COP(=O)(OC)c1ccc(CN2CCC(Nc3nc(Oc4c(C)cc(/C=C/C#N)cc4C)c4sccc4n3)CC2)cc1 [15b]
2. Cc1cc(C#N)cc(C)c1Oc1nc(NC2CCN(Cc3ccc(P(C)(C)=O)cc3)CC2)nc2ccsc12

7.72
8.66

Need pEC50 for each of these compounds.
1. Cc1cc(/C=C/C#N)cc(C)c1Oc1nc(NC2CCN(Cc3ccc(P(=O)(OC(C)C)OC(C)C)cc3)CC2)nc2ccsc12 [15f]
2. CCCCOP(=O)(OCCCC)c1ccc(CN2CCC(Nc3nc(Oc4c(C)cc(C#N)cc4C)c4sccc4n3)CC2)cc1

1: 7.53; 2: 6.90

====

Task for the reader: assign each of the following molecules its reported pEC50.
tested on: HIV-1 RES056 (K103N/Y181C); experiment: microbe, parasite or virus in culture; format: cell-based; conditions: Human immunodeficiency virus 1, MT4, read-out: EC50 RES056
One number for each entry, as −log10 of the molar value.

Example cases with answers are listed next.
>  <molecule>
CCCCOP(=O)(OCCCC)c1ccc(CN2CCC(Nc3nc(Oc4c(C)cc(/C=C/C#N)cc4C)c4sccc4n3)CC2)cc1 [15d]

>  <pEC50>
5.85

$$$$
>  <molecule>
COP(=O)(OC)c1ccc(CN2CCC(Nc3nc(Oc4c(C)cc(C#N)cc4C)c4sccc4n3)CC2)cc1

>  <pEC50>
6.71

$$$$
>  <molecule>
CCOP(=O)(OCC)c1ccc(CN2CCC(Nc3nc(Oc4c(C)cc(C#N)cc4C)c4sccc4n3)CC2)cc1

>  <pEC50>
6.35

$$$$

Need pEC50 for each of these molecules.
1. Cc1cc(C#N)cc(C)c1Oc1nc(NC2CCN(Cc3ccc(P(=O)(OCC(C)C)OCC(C)C)cc3)CC2)nc2ccsc12
2. Cc1cc(/C=C/C#N)cc(C)c1Oc1nc(NC2CCN(Cc3ccc(P(=O)(OC(C)(C)C)OC(C)(C)C)cc3)CC2)nc2ccsc12 [15g]

1: 4.88; 2: 6.71

Need pEC50 for each of these molecules.
1. Cc1cc(C#N)cc(C)c1Oc1nc(NC2CCN(Cc3ccc(P(C)(C)=O)cc3)CC2)nc2ccsc12
2. CCCCOP(=O)(OCCCC)c1ccc(CN2CCC(Nc3nc(Oc4c(C)cc(C#N)cc4C)c4sccc4n3)CC2)cc1
3. Cc1cc(/C=C/C#N)cc(C)c1Oc1nc(NC2CCN(Cc3ccc(P(C)(C)=O)cc3)CC2)nc2ccsc12 [15a]

1: 6.59; 2: 5.19; 3: 7.80

Need pEC50 for each of these molecules.
1. Cc1cc(C#N)cc(C)c1Oc1nc(NC2CCN(Cc3ccc(P(=O)(OCC(F)(F)F)OCC(F)(F)F)cc3)CC2)nc2ccsc12
2. Cc1cc(/C=C/C#N)cc(C)c1Oc1nc(NC2CCN(Cc3ccc(P(=O)(OC(C)C)OC(C)C)cc3)CC2)nc2ccsc12 [15f]
3. Cc1cc(C#N)cc(C)c1Oc1nc(NC2CCN(Cc3ccc(P(=O)(OC(C)C)OC(C)C)cc3)CC2)nc2ccsc12

5.89
6.40
6.29

Need pEC50 for each of these molecules.
1. Cc1cc(/C=C/C#N)cc(C)c1Oc1nc(NC2CCN(Cc3ccc(P(=O)(OCC(C)C)OCC(C)C)cc3)CC2)nc2ccsc12 [15h]
2. COP(=O)(OC)c1ccc(CN2CCC(Nc3nc(Oc4c(C)cc(/C=C/C#N)cc4C)c4sccc4n3)CC2)cc1 [15b]

1: 5.66; 2: 6.22
